Below, each entry is listed with its recorded Potency.
# assay-protocol: qHTS of pediatric cancer cell lines to identify multiple opportunities for drug repurposing: Primary screen for SK-N-MC cells (AID 1347093); note: potency is the fitted concentration of half-maximal effect
# cond: SK-N-MC viability, CellTiter-Glo luminescence, 48 h; series mostly up to 46 µM
Results filed as inconclusive are left out. Activity calls are given as the source filed them. Calls come from the whole dose curve; as a rule, active = well fitted cell-killing curve with a large enough effect; inconclusive = small, poorly fitted or top-dose-only effect; inactive = no such curve, though single readings can be large or run the other way.
measured-attribute: Potency

> print(dat)
                                        smi  measured.attribute            reported
1  Cc1ccn(-c2ccc(-c3ncco3)cc2)c(=O)c1-c1ccc2nc(N)ncc2c1             Potency    3.32 µM (active)
2         CCCCCCCCCCCC1=C(O)C(=O)C=C(O)C1=O             Potency  0.0935 µM (active)
